parameter measured: melting point

{"compound": "O=C(c1ccccc1F)C1(O)CCNCC1", "result": "133 to 135 °C"}
{"compound": "CC(CC(=O)O)c1ccc(-c2ccccc2)c(Cl)c1 (stereo not drawn)", "result": "66 to 67 °C"}
{"compound": "CCCN(CCC)c1c(CC)nn2c(-c3c(C)cc(C)cc3OC)cccc12", "result": "72.3 to 74.6 °C"}
{"compound": "O=C(Nc1ccc(C(=O)N2CCCCc3ccccc32)cc1)c1ccccc1OCCCCCCN1C(=O)c2ccccc2C1=O", "result": "145 to 146 °C"}
{"compound": "O=C(CCCCCBr)Nc1ccc(O)cc1F", "result": "66 to 69 °C"}
{"compound": "Nc1cccc(-c2ccc(CCN3CCN(C(=O)c4ccco4)CC3)cc2)n1", "result": "152 to 154 °C"}
{"compound": "CN(CCC=C1c2ccccc2COc2ccccc21)CCCCCC(O)c1ccc(C(C)(C)C)cc1 (stereo not drawn)", "result": "73 to 75 °C"}
{"compound": "CCn1ncc2c3onc(-c4cccc(O)c4)c3cnc21", "result": "187 to 188 °C"}

====

{"compound": "COC(=O)C1=C(C)NC(c2scnc2C)=NC1c1ccc(F)cc1Cl (centres undefined)", "melting point": "145 to 147 °C"}
{"compound": "CC(C)n1cc(-c2nc(C(N)=O)c(N)nc2-c2ccc(F)cc2)ccc1=O", "melting point": "236 °C"}
{"compound": "CCCc1oc2ccccc2c1C(=O)c1ccc(OCCBr)cc1", "melting point": "68 to 70 °C"}
{"compound": "CCOC(=O)C(=O)Nc1cc(C#N)ccc1O", "melting point": "295 °C"}
{"compound": "O=C(O)CN1C(=O)C(=Cc2ccc(OCc3cccc(C(F)(F)F)c3)c(OCc3ccccc3)c2)SC1=S", "melting point": "187 to 194 °C"}
{"compound": "CCCc1c(C(=O)C(C)C)c2ccc(C(N)=O)cc2n1Cc1ccccc1Cl", "melting point": "85 to 86 °C"}
{"compound": "O=[N+]([O-])c1ccc(-c2n[nH]c3c2Cc2ccccc2-3)cc1", "melting point": "267 to 270 °C"}
{"compound": "COC(=O)c1ccc2nn(-c3cc(C(C)(C)CC(C)(C)C)cc(C(C)(C)c4ccccc4)c3O)nc2c1", "melting point": "141 to 143 °C"}
{"compound": "COC(=O)[C@]1(F)[C@@H]2[C@H]1C(=O)C[C@H]2O[Si](C)(C)C(C)(C)C", "melting point": "70 to 71 °C"}
{"compound": "Cc1cc2c(c(C)c1NC(=O)CC(C)(C)C)C(c1ccc(C(C)C)cc1)CO2 (centres undefined)", "melting point": "130 to 131 °C"}
{"compound": "O=C(Cn1nnc2ccccc21)Nc1ccc(-n2nc(C(F)(F)F)c(Cl)c2C2CC2)nc1", "melting point": "182 to 189 °C"}
{"compound": "CC(C)Oc1ccc(-c2[nH]c(-c3ccc([N+](=O)[O-])cc3)nc2C(=O)Nc2nccs2)cc1", "melting point": "267 to 270 °C"}
{"compound": "CS(=O)Cc1ccc(Cl)nc1 (centres undefined)", "melting point": "72 to 74 °C"}
{"compound": "CCOC(=O)c1ccc(NCCCOc2ccccc2)cc1", "melting point": "73 to 74 °C"}
{"compound": "COc1ccc(C2=NN(C3CCN(C(=O)CN4C(=O)CCC4=O)CC3)C(=O)C(C)(C)C2)c2c1OC(C)(C)C2", "melting point": "240 to 241 °C"}
{"compound": "CN1CCN(c2ccc(C(=O)N[C@H]3CC[C@H](CCN4CCN(c5nccc6c5OCC6)CC4)CC3)cc2)CC1", "melting point": "236 °C"}
{"compound": "Nc1nc(Cl)c(CCCl)c(Cl)n1", "melting point": "210 to 213 °C"}
{"compound": "CC(C)c1cccc(C(C)C)c1NC(=O)C1CCCC(CCCCCOc2ccccc2)(c2ccccc2)C1=O (centres undefined)", "melting point": "150 to 153 °C"}
{"compound": "O=C(CN1C(=O)CNC1=O)OCc1ccccc1", "melting point": "142 to 144 °C"}
